meta.source: paper PMC4883699

- ASSAY_NAME: Cytotoxicity on Vero cells
- CONDITION_DESCRIPTION: African green monkey
IC50 values, listed per item

Reference set (2 entries):
COMPOUND | IC50
CC(C)C(=O)Nc1ccc2[nH]c3c(C4=C[C@@]5(O)CC/C=C\CCCCN6CC[C@@H]4[C@]4(C[C@@H]7/C=C\CCCCN7[C@H]45)C6)nccc3c2c1 [Compound 8, 6-Isobutamidomanzamine A] | > 470 nM
O=C(Nc1ccc2[nH]c3c(C4=C[C@@]5(O)CC/C=C\CCCCN6CC[C@@H]4[C@]4(C[C@@H]7/C=C\CCCCN7[C@H]45)C6)nccc3c2c1)C1CCCCC1 [Compound 14, 6-Cyclohexamidomanzamine A] | > 470 nM

Below: the item to evaluate.
Field request: IC50 | item: O[C@]12C=C(c3nccc4c3[nH]c3ccccc34)[C@@H]3CCN(CCCC/C=C\CC1)C[C@@]31C[C@@H]3/C=C\CCCCN3[C@H]12 [Compound 1, Manzamine A]
365 nM
